Target: T1, HpSoj K199/230E (Helicobacter pylori 26695, UniProt O25759 1-264, K199E;K230E)
T1 sequence: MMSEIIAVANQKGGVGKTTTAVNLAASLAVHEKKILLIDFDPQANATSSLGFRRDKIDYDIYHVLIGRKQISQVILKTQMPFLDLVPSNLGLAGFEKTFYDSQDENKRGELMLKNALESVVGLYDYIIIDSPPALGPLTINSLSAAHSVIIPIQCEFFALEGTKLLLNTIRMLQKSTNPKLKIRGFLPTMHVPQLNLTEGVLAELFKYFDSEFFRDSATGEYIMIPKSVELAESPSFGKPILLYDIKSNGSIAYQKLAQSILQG
Assay: fluorescence polarization
Observable: pKd
# reply with the number alone; pKd is -log10 of concentration in mol/L

Problem: Recorded pKd for parS24 Cy3 (dsDNA) DNA 1: AGGGTGTTCCACGTGAAACAGGGA DNA 2: TCCCTGTTTCACGTGGAACACCCT , please?
Solution: 6.51

Just for reference, paper PMC6393308 is where these values come from.
